Hello, the source for this data is PubChem BioAssay AID868, in case you need it.

TEST: inhibitors of the yeast RAM network, primary screen, dse1pr::URA3 reporter, 5-FOA selection (AID 868);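 note: 0% = DMSO-only wells with no growth and 100% = 10 µM 1-NA-PP1 full growth; inhibition rescues growth on 5-FOA so higher OD means more RAM inhibition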
TEST PARAMETERS: S. cerevisiae dse1pr::URA3 reporter, 5-FOA growth OD615, 2 d; at 50 µM; active compounds read high; analog-sensitive cbk1-as2 kinase mutant strain
In all, about 190,000 compounds went through this assay and about 3,500 (1.8%) were called active. The full list was thinned out, with actives kept by preference.
Consider the following compounds and their measured inhibition readings.
Output spec: scalar in %, unitless text.

Here's what some known entries look like.
COMPOUND: Cc1ccc(NC(=O)c2ccn(C(=O)Nc3ccccc3)n2)c(C)c1
RESULT UNITS: %
inhibition: 1.13
//
COMPOUND: Cc1cc(C)cc(NS(=O)(=O)c2ccc(Oc3ncc(C(F)(F)F)cc3Cl)cc2)c1
RESULT UNITS: %
inhibition: 10.7
//
COMPOUND: Cc1ccnc(NS(=O)(=O)c2ccc(NC(=O)c3ccc(S(=O)(=O)N(C)C)cc3)cc2)n1
RESULT UNITS: %
inhibition: -0.41

Data point: Cc1ccc(S(=O)(=O)NCCc2nnc3ccc(SCc4cccnc4)nn23)cc1 ; inhibition = 0.39

Looking up Cc1cccc(NC(=O)Cn2c(=O)n(Cc3ccccc3)c(=O)c3c(C)c(C)sc32)c1 , I see its inhibition listed as 2.47

inhibition measured on COc1ccccc1Oc1ccc(S(=O)(=O)Nc2cccnc2)cc1 = -0.91

Lab note: CC(NC(=O)COC(=O)C1CCN(S(=O)(=O)c2ccccc2C(F)(F)F)CC1)c1ccccc1 (stereo not given) gave inhibition of 8.48

Consider CC(NC(=O)CCC(=O)N1CCN(S(=O)(=O)c2ccc(Cl)cc2)CC1)c1ccccc1 (stereo not given) . Its measured inhibition is 2.73

Input CCNC(=O)NC(=O)C(C)OC(=O)C1CCN(S(=O)(=O)c2ccccc2F)CC1 (stereo not given) . Output inhibition: -0.96

For record CCOC(=O)Cc1ncccc1C(=O)Nc1ccc(OC(F)(F)F)cc1 the listed inhibition is -0.27
